system: winter wheat; test: Test E winter wheat; assay type: in vivo, Triticum aestivum; settings: Rate 250 g/ha, Postemergence; 0 to 100 scale where 0 is no effect and 100 is complete control
In plain terms, low Wheat (winter) plant response rating, meaning strictly below 10, gives TRUE, and everything else gives FALSE.

{"CHEMICAL_STRUCTURE": "CC(C)N(C(=O)n1oc(=O)n(CC(C)(C)C)c1=O)c1ccc(F)cc1", "CATEGORY_LABEL": "TRUE"}
{"CHEMICAL_STRUCTURE": "CC(C)N(Cc1ccccc1)C(=O)n1oc(=O)n(C(C)C)c1=O", "CATEGORY_LABEL": "FALSE"}
{"CHEMICAL_STRUCTURE": "COCn1c(=O)on(C(=O)N(c2ccc(F)cc2)C(C)C)c1=O", "CATEGORY_LABEL": "FALSE"}
{"CHEMICAL_STRUCTURE": "Cc1nsc(C)c1-n1c(=O)on(C(=O)N(c2ccc(F)cc2)C(C)C)c1=O", "CATEGORY_LABEL": "FALSE"}

* * *

system: rape; assay: Test B pre/postemergence rape; format: in vivo, Brassica napus; conditions: Preemergence, Rate 125 g/ha; scale of 0 to 10 where 0 is no effect and 10 is complete control
The following compounds are listed with their measured Plant response rating, Rape values.
RECORDED_ENDPOINT: Plant response rating, Rape

{"COMPOUND": "CCOC(=O)C=C(Cn1c(=O)on(C(=O)N(c2ccc(F)cc2)C(C)C)c1=O)OCC", "RECORDED_ENDPOINT": "Plant response rating, Rape", "READING": 0}
{"COMPOUND": "COC1CCC(Cn2c(=O)on(C(=O)N(c3ccc(Cl)cc3)C(C)C)c2=O)=NO1 (centres unmarked)", "RECORDED_ENDPOINT": "Plant response rating, Rape", "READING": 0}
{"COMPOUND": "CC(C)N(C(=O)n1oc(=O)n(CBr)c1=O)c1ccccc1", "RECORDED_ENDPOINT": "Plant response rating, Rape", "READING": 0}
{"COMPOUND": "C#CC(CC)n1c(=O)on(C(=O)N(c2ccc(F)cc2)C(C)C)c1=O (centres unmarked)", "RECORDED_ENDPOINT": "Plant response rating, Rape", "READING": 5}
{"COMPOUND": "CC(C)N(C(=O)n1oc(=O)n(C(C)C)c1=O)c1ccc(Br)cc1", "RECORDED_ENDPOINT": "Plant response rating, Rape", "READING": 3}

* * *

The following molecules are listed with their measured Plant response rating, Giant foxtail values.
tested on: giant foxtail; experiment: Test B pre/postemergence giant foxtail; format: in vivo, Setaria faberii; details: Preemergence, Rate 250 g/ha; scale of 0 to 10 where 0 is no effect and 10 is complete control
RECORDED_ENDPOINT: Plant response rating, Giant foxtail

{"CHEMICAL_STRUCTURE": "CC(C)N(C(=O)n1oc(=O)n(-c2c(Cl)cccc2Cl)c1=O)c1ccc(F)cc1", "RECORDED_ENDPOINT": "Plant response rating, Giant foxtail", "READING": 4}
{"CHEMICAL_STRUCTURE": "CC(C)N(C(=O)n1oc(=O)n(-c2cnn(C)c2Cl)c1=O)c1ccc(F)cc1", "RECORDED_ENDPOINT": "Plant response rating, Giant foxtail", "READING": 4}
{"CHEMICAL_STRUCTURE": "Cc1cccc(C(C)C)c1-n1c(=O)on(C(=O)N(c2ccc(F)cc2)C(C)C)c1=O", "RECORDED_ENDPOINT": "Plant response rating, Giant foxtail", "READING": 4}
